- measured-target: UniProt:Q8DPI9
- Sequence (Q8DPI9 1-701): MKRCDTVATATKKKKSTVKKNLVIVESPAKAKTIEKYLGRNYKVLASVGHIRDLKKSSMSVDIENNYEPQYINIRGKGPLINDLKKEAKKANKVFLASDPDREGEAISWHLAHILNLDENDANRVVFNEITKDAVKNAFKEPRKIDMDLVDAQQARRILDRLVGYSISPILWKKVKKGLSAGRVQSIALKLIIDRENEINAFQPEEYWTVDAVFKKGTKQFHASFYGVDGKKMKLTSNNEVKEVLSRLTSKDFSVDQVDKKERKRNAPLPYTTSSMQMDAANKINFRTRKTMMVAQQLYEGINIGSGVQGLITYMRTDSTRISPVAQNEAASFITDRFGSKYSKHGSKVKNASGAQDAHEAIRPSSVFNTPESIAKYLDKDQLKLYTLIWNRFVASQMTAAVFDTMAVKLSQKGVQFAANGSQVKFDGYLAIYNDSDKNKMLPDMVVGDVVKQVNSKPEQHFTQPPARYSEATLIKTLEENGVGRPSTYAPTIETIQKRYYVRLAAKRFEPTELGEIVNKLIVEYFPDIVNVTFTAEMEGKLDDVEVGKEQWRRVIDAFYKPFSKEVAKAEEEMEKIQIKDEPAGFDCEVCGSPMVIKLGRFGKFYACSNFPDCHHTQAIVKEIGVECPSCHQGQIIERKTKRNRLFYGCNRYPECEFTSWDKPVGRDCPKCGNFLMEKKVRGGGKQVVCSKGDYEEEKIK
pIC50: −log10 of the molar value.
parameter: pIC50

| structure | value-reported |
| --- | --- |
| CNCCc1cc2c(c3c1ccc1cc4c(cc13)OCO4)OCO2 | 5.17 |
